Measurement Target: CDK7/CycH/MNAT1 (Homo sapiens (Human), UniProt P50613)
Sequence (P50613 whole entry): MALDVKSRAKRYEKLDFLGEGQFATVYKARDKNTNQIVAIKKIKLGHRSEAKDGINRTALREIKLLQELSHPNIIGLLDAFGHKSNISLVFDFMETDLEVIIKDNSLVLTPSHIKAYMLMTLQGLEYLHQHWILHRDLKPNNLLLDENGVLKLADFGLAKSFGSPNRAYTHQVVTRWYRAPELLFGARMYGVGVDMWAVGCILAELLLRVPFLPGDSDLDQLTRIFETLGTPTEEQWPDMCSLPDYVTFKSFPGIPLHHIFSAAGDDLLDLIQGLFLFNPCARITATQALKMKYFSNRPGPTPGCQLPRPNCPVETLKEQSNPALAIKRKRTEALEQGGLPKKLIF
Sequence (P51946 whole entry partner): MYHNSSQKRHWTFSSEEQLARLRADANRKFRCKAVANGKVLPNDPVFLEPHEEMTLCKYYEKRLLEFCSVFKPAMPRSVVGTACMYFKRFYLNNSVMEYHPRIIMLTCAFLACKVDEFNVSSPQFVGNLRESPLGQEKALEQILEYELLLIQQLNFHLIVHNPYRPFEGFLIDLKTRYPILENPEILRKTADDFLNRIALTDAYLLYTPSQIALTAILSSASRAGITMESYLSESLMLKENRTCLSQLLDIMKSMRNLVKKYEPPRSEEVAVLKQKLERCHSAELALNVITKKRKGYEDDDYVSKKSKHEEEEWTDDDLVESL
Sequence (P51948 whole entry partner): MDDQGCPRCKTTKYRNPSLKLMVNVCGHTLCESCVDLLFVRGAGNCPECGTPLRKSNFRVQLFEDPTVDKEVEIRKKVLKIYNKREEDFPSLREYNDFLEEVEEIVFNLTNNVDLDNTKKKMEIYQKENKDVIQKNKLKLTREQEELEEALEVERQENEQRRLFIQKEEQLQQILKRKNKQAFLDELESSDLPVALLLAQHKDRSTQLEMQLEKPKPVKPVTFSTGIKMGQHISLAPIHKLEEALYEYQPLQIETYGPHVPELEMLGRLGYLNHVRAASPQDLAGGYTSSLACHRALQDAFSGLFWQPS
Assay Explanation: Biochemical Assay for CDK7 (TR-FRET kinase assay)
Test Context: 60 min pre-incubation with kinase; 1 mM ATP
pIC50: −log10 of the molar value.
Recorded pIC50 by entry

| Molecule | pIC50 |
| --- | --- |
| CC(C(=O)Nc1cc(C2CC2)[nH]n1)c1cccc(-c2cccc(NC(=O)/C=C/CN3CCOCC3)c2)c1 (stereo not shown) [Compound 61] | < 7.00 |

Consider the record given below.
Reported pIC50, molecule CC(C(=O)Nc1cc(C2CC2)[nH]n1)c1cccc(-c2ccc(NC(=O)/C=C/CN(C)C)nc2)c1 (stereo not shown) [Compound 42] : ____ > 7.60

* * *

Measurement Target: CDK7/CycH/MNAT1 (Homo sapiens (Human), UniProt P50613)
Assay Explanation: Biochemical Assay for CDK7 (TR-FRET kinase assay)
Test Context: 10 μM compound; 60 min pre-incubation with kinase; 1 mM ATP
Short version: inhibition at 10 µM at least 90% is Condition met, less is Condition not met.

| Molecule | Class |
| --- | --- |
| C=CC(=O)Nc1ccc(-c2cccc(C(C)C(=O)Nc3n[nH]c(C4CC4)c3C)c2)cc1 (stereo not shown) | Condition not met |
| CC(C(=O)Nc1cc(C(C)(C)C)[nH]n1)c1cccc(-c2ccc(NC(=O)/C=C/CN(C)C)cc2)c1 (stereo not shown) | Condition not met |
| C=CC(=O)Nc1ccc(-c2cccc(C(C)C(=O)Nc3cc(C(C)(C)C)[nH]n3)c2)cc1 (stereo not shown) | Condition not met |

inhibition at 10 µM >= 90% for CC(C(=O)Nc1cc(C2CC2)[nH]n1)c1cccc(-c2ccc(NC(=O)/C=C/Cn3ccnc3)nc2)c1 (stereo not shown) ? Condition not met

* * *

Measurement Target: CDK7/CycH/MNAT1 (Homo sapiens (Human), UniProt P50613)
Assay Explanation: Biochemical Assay for CDK7 (TR-FRET kinase assay)
Test Context: 10 μM compound; 60 min pre-incubation with kinase; 1 mM ATP
Outcome Measure: % inhibition @ 10 μM (%)
# unit: % | format: bare number

| Compound | Unit Tag | % inhibition @ 10 μM |
| --- | --- | --- |
| CC(C(=O)Nc1cc(C2CC2)[nH]n1)c1cccc(-c2ccc(NC(=O)/C=C/CN3CCOCC3)nc2)c1 (single isomer, unassigned) [Compound 11] | % | 75 |
| CC(C(=O)Nc1cc(C2CC2)[nH]n1)c1cccc(-c2ccc(NC(=O)/C=C/CN(C)C)cc2)c1 (single isomer, unassigned) [Compound 2] | % | 69 |

Reported % inhibition @ 10 μM, compound COC[C@@H]1CCCN1C/C=C/C(=O)Nc1ccc(-c2cccc(C(C)C(=O)Nc3cc(C4CC4)[nH]n3)c2)cn1 (single isomer, unassigned) : ____ 98

Reported % inhibition @ 10 μM, compound CC(C(=O)Nc1cc(C2CC2)[nH]n1)c1cccc(-c2ccc(NC(=O)/C=C/CN(C)C)cc2)c1 (single isomer, unassigned) [Compound 3] : ____ 99

Reported % inhibition @ 10 μM, compound CC(C(=O)Nc1cc(C2CC2)[nH]n1)c1cccc(-c2ccc(NC(=O)/C=C/CN3CC[C@H](F)C3)nc2)c1 (single isomer, unassigned) : ____ 90

Reported % inhibition @ 10 μM, compound CC(C(=O)Nc1cc(C2CC2)[nH]n1)c1cccc(-c2ccc(NC(=O)/C=C/CN3CC[C@@H](F)C3)nc2)c1 (single isomer, unassigned) : ____ 90

Reported % inhibition @ 10 μM, compound CC(C(=O)Nc1cc(C2CC2)[nH]n1)c1cccc(-c2ccc(NC(=O)/C=C/CN3CCOCC3)nc2)c1 (single isomer, unassigned) [Compound 12] : ____ 98

Reported % inhibition @ 10 μM, compound CC(C(=O)Nc1cc(C2CC2)[nH]n1)c1cccc(-c2ccc(NC(=O)/C=C/CN3CCCC3)nc2)c1 (single isomer, unassigned) [Compound 53] : ____ 100

Reported % inhibition @ 10 μM, compound CC(C(=O)Nc1cc(C2CC2)[nH]n1)c1cccc(-c2ccc(NC(=O)/C=C/CN3CCCC3)nc2)c1 (single isomer, unassigned) [Compound 54] : ____ 78

Reported % inhibition @ 10 μM, compound C=CC(=O)Nc1ccc(-c2cccc(C(C)C(=O)Nc3cc(C4CC4)[nH]n3)c2)cn1 (single isomer, unassigned) : ____ 97

* * *

Measurement Target: CDK7/CycH/MNAT1 (Homo sapiens (Human), UniProt P50613)
Assay Explanation: Biochemical Assay for CDK7 (TR-FRET kinase assay)
Test Context: 60 min pre-incubation with kinase; 1 mM ATP
Outcome Measure: IC50

Previously resolved entries follow.
| Molecule | Measurement Target | IC50 |
| --- | --- | --- |
| CC(C(=O)Nc1cc(C2CC2)[nH]n1)c1cccc(-c2ccc(NC(=O)/C=C/CN3CCC[C@H]3CC#N)nc2)c1 (some centres unmarked) [Compound 82] | CDK7/CycH/MNAT1 (Homo sapiens (Human), UniProt P50613) | 0.025 to 0.1 µM |
| CC(C(=O)Nc1cc(C2CC2)[nH]n1)c1cccc(-c2ccc(NC(=O)/C=C/CN3CC[C@H](F)C3)nc2)c1 (some centres unmarked) [Compound 46] | CDK7/CycH/MNAT1 (Homo sapiens (Human), UniProt P50613) | < 0.025 µM |
| CC(C(=O)Nc1cc(C2CC2)[nH]n1)c1cccc(-c2ccc(NC(=O)/C=C/CN3CC[C@@H](F)C3)nc2)c1 (single isomer, unassigned) [Compound 50] | CDK7/CycH/MNAT1 (Homo sapiens (Human), UniProt P50613) | < 0.025 µM |
| C=CC(=O)Nc1ccc(-c2cccc(C(C)C(=O)Nc3cc(C4CC4)[nH]n3)c2)cc1OC (centres unmarked) [Compound 65] | CDK7/CycH/MNAT1 (Homo sapiens (Human), UniProt P50613) | > 0.1 µM |
| CC(C(=O)Nc1cc(C2CC2)[nH]n1)c1cccc(-c2ccc(NC(=O)/C=C/CN3CCCC3)c(F)c2)c1 (centres unmarked) [Compound 33] | CDK7/CycH/MNAT1 (Homo sapiens (Human), UniProt P50613) | 0.025 to 0.1 µM |

Consider the record given below.
Reported IC50, molecule C=CC(=O)Nc1ccc(-c2cccc(C(C)C(=O)Nc3n[nH]c(C4CC4)c3C)c2)cc1 (centres unmarked) [Compound 30] : ____ > 0.1 µM

* * *

Measurement Target: CDK7/CycH/MNAT1 (Homo sapiens (Human))
Assay Explanation: Biochemical Assay for CDK7 (TR-FRET kinase assay)
Test Context: 10 μM compound; 60 min pre-incubation with kinase; 1 mM ATP
Short version: inhibition at 10 µM at least 90% is Condition met, less is Condition not met.

inhibition at 10 µM >= 90% for CC(C(=O)Nc1cc(C2CC2)[nH]n1)c1cccc(-c2cnc(NC(=O)/C=C/CN3CCOCC3)c(F)c2)c1 (centres unmarked) [Compound 63] ? Condition met

inhibition at 10 µM >= 90% for C=CC(=O)Nc1ccc(-c2cccc(C(C)C(=O)Nc3cc(C4CC4)[nH]n3)c2)c(C)c1 (centres unmarked) [Compound 75] ? Condition not met

inhibition at 10 µM >= 90% for CC(C(=O)Nc1cc(C2CC2)n(C)n1)c1cccc(-c2ccc(NC(=O)/C=C/CN(C)C)cc2)c1 (centres unmarked) [Compound 6] ? Condition not met

inhibition at 10 µM >= 90% for CC(C(=O)Nc1cc(C2CC2)[nH]n1)c1cccc(-c2ccc(NC(=O)/C=C/CN3CCCCC3)nc2)c1 (centres unmarked) [Compound 40] ? Condition met

inhibition at 10 µM >= 90% for CC(C(=O)Nc1cc(C2CC2)[nH]n1)c1cccc(-c2ccc(NC(=O)/C=C/CN(C)C)nc2)c1 (centres unmarked) [Compound 42] ? Condition met

inhibition at 10 µM >= 90% for CCC(C(=O)Nc1cc(C2CC2)[nH]n1)c1cccc(-c2ccc(NC(=O)/C=C/CN(C)C)c(F)c2)c1 (centres unmarked) [Compound 31] ? Condition met

inhibition at 10 µM >= 90% for CC(C(=O)Nc1cc(C2CC2)[nH]n1)c1cccc(-c2ccc(NC(=O)/C=C/CN3CCCC(F)C3)nc2)c1 (centres unmarked) [Compound 57] ? Condition met

inhibition at 10 µM >= 90% for COC[C@@H]1CCCN1C/C=C/C(=O)Nc1ccc(-c2cccc(C(C)C(=O)Nc3cc(C4CC4)[nH]n3)c2)cn1 (some centres unmarked) [Compound 70] ? Condition not met

inhibition at 10 µM >= 90% for CC(C(=O)Nc1cc(C2CC2)[nH]n1)c1cccc(-c2ccc(NC(=O)/C=C/CN(C)C)c(F)c2)c1 (centres unmarked) [Compound 14] ? Condition met

* * *

Measurement Target: CDK7/CycH/MNAT1 (Homo sapiens (Human), UniProt P50613)
Assay Explanation: Biochemical Assay for CDK7 (TR-FRET kinase assay)
Test Context: 60 min pre-incubation with kinase; 1 mM ATP
Outcome Measure: IC50

Previously resolved entries follow.
| Compound | IC50 |
| --- | --- |
| CC(C)(C(=O)Nc1cc(C2CC2)[nH]n1)c1cccc(-c2ccc(NC(=O)/C=C/CN3CCCC3)nc2)c1 [Compound 95] | > 100 nM |
| CC(C(=O)Nc1cc(C2CCC2)[nH]n1)c1cccc(-c2ccc(NC(=O)/C=C/CN(C)C)cc2)c1 (centres unmarked) [Compound 15] | < 25 nM |
| CCc1cc(NC(=O)C(C)c2cccc(-c3ccc(NC(=O)/C=C/CN(C)C)cc3)c2)n[nH]1 (centres unmarked) [Compound 8] | > 100 nM |
| C=CC(=O)Nc1ccc(-c2cc(C(C)C(=O)Nc3cc(C4CC4)[nH]n3)ccc2F)cc1F (centres unmarked) [Compound 23] | 25 to 100 nM |
| CC(C(=O)Nc1cc(C2CC2)[nH]n1)c1cccc(-c2ccc(NC(=O)/C=C/CN(C)C)c(F)c2)c1 (centres unmarked) [Compound 14] | > 100 nM |

Reported IC50, compound CC(C(=O)Nc1cc(C2CC2)[nH]n1)c1cccc(-c2ccc(NC(=O)/C=C/CN3CC[C@H](F)C3)nc2)c1 (single isomer, unassigned) [Compound 47] : ____ < 25 nM

Reported IC50, compound CC(C(=O)Nc1cc(C2CC2)[nH]n1)c1cccc(-c2ccc(NC(=O)/C=C/CN(C)C)cc2)c1 (centres unmarked) [Compound 1] : ____ 25 to 100 nM
